tested on: Candida parapsilosis CCM 8260 (ATCC 22019); assay: Antifungal microdilution broth (EUCAST); settings: Lodderomyces parapsilosis, 24 h, read-out: MIC CP
What MIC was measured for each of the following?

MOLECULE | MIC
O=C(Nc1nccs1)c1ccncc1 | > 500 µM
Cc1cncc(C(=O)Nc2nc(-c3ccccc3)co2)c1 [Compound 14b] | > 500 µM
O=C(Nc1nc(-c2ccccc2)co1)c1cccnc1 [Compound 12b] | > 500 µM
O=C(Nc1nc(-c2ccccc2)cs1)c1ccncc1 [Compound 13a] | > 125 µM

Then there is this molecule:
Recorded MIC for O=C(Nc1nc(-c2ccccc2)cs1)c1cccnc1 [Compound 12a] , please?
> 125 µM

----------
system: Candida krusei CCM 8271 (ATCC 6258); experiment: Antifungal microdilution broth (EUCAST); details: Pichia kudriavzevii, 24 h, read-out: MIC CK
READOUT NAME: MIC

COMPOUND | SYSTEM UNDER TEST | MIC
O=C(Nc1nc(-c2ccccc2)co1)c1cnc2ccccc2n1 [Compound 19b] | Candida krusei CCM 8271 (ATCC 6258) | > 125 µM
O=C(Nc1nc(-c2ccccc2)cs1)c1ccncc1 [Compound 13a] | Candida krusei CCM 8271 (ATCC 6258) | > 125 µM
O=C(Nc1ncco1)c1ccnc(Cl)c1 | Candida krusei CCM 8271 (ATCC 6258) | 250 µM

Quick batch: MIC for everything below.
1. O=C(Nc1nc(-c2ccccc2)co1)c1ccnc(Cl)c1 [Compound 15b]
2. O=C(Nc1nc(-c2ccccc2)cs1)c1cccnc1 [Compound 12a]
3. O=C(Nc1ncco1)c1cnccn1
4. Cc1cc(C(=O)Nc2ncco2)ccn1
5. O=C(Nc1ncco1)c1ccncc1
6. Cc1cc(C(=O)Nc2nc(-c3ccccc3)cs2)cc(Cl)n1 [Compound 16a]

["500 µM", "> 125 µM", "> 500 µM", "> 125 µM", "500 µM", "> 125 µM"]

Quick batch: MIC for everything below.
1. O=C(Nc1nc(-c2ccccc2)co1)c1ccccn1 [Compound 11b]
2. Cc1cc(C(=O)Nc2nc(-c3ccccc3)co2)cc(Cl)n1 [Compound 16b]
3. O=C(Nc1ncco1)c1ccccn1
4. O=C(Nc1nccs1)c1ccncc1
5. O=C(Nc1nccs1)c1ccnc(Cl)c1
6. O=C(Nc1nc(-c2ccccc2)co1)c1ccncc1 [Compound 13b]
7. O=C(Nc1nccs1)c1cnc2ccccc2n1 [Compound 10a]

500 µM
> 125 µM
> 500 µM
> 500 µM
> 500 µM
> 500 µM
> 500 µM

----------
Assay: RP-UHPLC lipophilicity parameter log k’w
Type: physicochemical
Details: RP-UHPLC, acetonitrile/water, log k extrapolated to 0% acetonitrile
Text: Lipophilicity and water solubility of the drug candidates are important parameters as they are often directly related to their ADME properties in the organism. Lipophilicity is usually expressed as the logarithm of the partition coefficient in n-octanol/water (log P). […] To investigate the changes in lipophilicity upon introduction of oxazole in the title compounds, we determined the log k’w of all derivatives and compared respective values among the pairs. […]
READOUT NAME: log k’w
Numbers only.

COMPOUND | READOUT NUMBER
O=C(Nc1nc(-c2ccccc2)cs1)c1cnccn1 [Compound 17a] | 2.365
O=C(Nc1ncco1)c1cnc(Cl)cn1 | 0.958
O=C(Nc1ncco1)c1ccncc1 | 0.396
O=C(Nc1ncco1)c1cnccn1 | 0.154
O=C(Nc1nc(-c2ccccc2)cs1)c1cnc(Cl)cn1 [Compound 18a] | 3.173

Quick batch: log k’w for everything below.
1. O=C(Nc1nc(-c2ccccc2)co1)c1cnc(Cl)cn1 [Compound 18b]
2. Cc1cncc(C(=O)Nc2ncco2)c1
3. O=C(Nc1nccs1)c1cnc2ccccc2n1 [Compound 10a]
4. O=C(Nc1nc(-c2ccccc2)co1)c1cccnc1 [Compound 12b]
5. Cc1cc(C(=O)Nc2ncco2)ccn1
6. O=C(Nc1nc(-c2ccccc2)co1)c1cnccn1 [Compound 17b]

[2.073, 0.888, 2.530, 1.118, 0.714, 1.306]

Recorded log k’w for O=C(Nc1ncco1)c1cnc2ccccc2n1 [Compound 10b] , please?
1.493

----------
What melting point was measured for each of the following?

The examples below pair each entry with its known result.
COMPOUND | melting point
O=C(Nc1nccs1)c1cnc2ccccc2n1 [Compound 10a] | 251.4 °C
O=C(Nc1nc(-c2ccccc2)co1)c1ccncc1 [Compound 13b] | 168 to 171 °C
O=C(Nc1nc(-c2ccccc2)co1)c1cnccn1 [Compound 17b] | 140 to 142 °C

Then there is this compound:
Recorded melting point for Cc1cc(C(=O)Nc2nc(-c3ccccc3)co2)cc(Cl)n1 [Compound 16b] , please?
83 to 86 °C

----------
test system: Mycobacterium tuberculosis H37Ra ITM-M006710 (ATCC 9431); experiment: Antimycobacterial MIC, microdilution broth / Alamar Blue (resazurin); type: cell-based; settings: Mycobacterium tuberculosis, 120 h, Middlebrook 7H9, resazurin after 120 h; read-out: Mtb H37Ra MIC
READOUT NAME: MIC

MOLECULE | SYSTEM UNDER TEST | MIC
O=C(Nc1nc(-c2ccccc2)cs1)c1ccccn1 [Compound 11a] | Mycobacterium tuberculosis H37Ra ITM-M006710 (ATCC 9431) | 3.91 to 7.81 µg/mL
O=C(Nc1nccs1)c1cnc2ccccc2n1 [Compound 10a] | Mycobacterium tuberculosis H37Ra ITM-M006710 (ATCC 9431) | ≥ 250 µg/mL

Quick batch: MIC for everything below.
1. Cc1cncc(C(=O)Nc2nc(-c3ccccc3)co2)c1 [Compound 14b]
2. O=C(Nc1nc(-c2ccccc2)cs1)c1ccncc1 [Compound 13a]

≥ 250 µg/mL
3.91 to 7.81 µg/mL

Recorded MIC for O=C(Nc1nc(-c2ccccc2)cs1)c1cccnc1 [Compound 12a] , please?
≥ 500 µg/mL

----------
system: Aspergillus flavus CCM 8363; test: Antifungal microdilution broth (EUCAST); conditions: Aspergillus flavus, CCM8363, 24 h, read-out: MIC AFla
What MIC was measured for each of the following?

The examples below pair each entry with its known result.
MOLECULE | MIC
O=C(Nc1nc(-c2ccccc2)cs1)c1ccnc(Cl)c1 [Compound 15a] | > 125 µM
O=C(Nc1ncco1)c1cnc(Cl)cn1 [Compound 9b] | > 500 µM
O=C(Nc1nc(-c2ccccc2)co1)c1cnccn1 [Compound 17b] | > 500 µM

Quick batch: MIC for everything below.
1. Cc1cncc(C(=O)Nc2ncco2)c1 [Compound 4b]
2. O=C(Nc1nc(-c2ccccc2)co1)c1ccccn1 [Compound 11b]
3. O=C(Nc1nccs1)c1ccncc1 [Compound 3a]
4. O=C(Nc1nc(-c2ccccc2)co1)c1cccnc1 [Compound 12b]
5. O=C(Nc1ncco1)c1ccccn1 [Compound 1b]
6. O=C(Nc1nccs1)c1ccccn1 [Compound 1a]
7. O=C(Nc1nc(-c2ccccc2)cs1)c1ccncc1 [Compound 13a]
8. O=C(Nc1nccs1)c1cnc2ccccc2n1 [Compound 10a]

> 500 µM
500 µM
> 500 µM
> 500 µM
> 500 µM
> 500 µM
> 125 µM
> 500 µM

----------
tested on: Staphylococcus epidermidis CCM 4418 (ATCC 12228); experiment: Antibacterial microdilution broth (EUCAST); type: cell-based; settings: Staphylococcus epidermidis; 24h incubation; read-out: MIC SE
READOUT NAME: MIC

The examples below pair each entry with its known result.
COMPOUND | RESULT
O=C(Nc1nccs1)c1ccccn1 | > 500 µM
O=C(Nc1nc(-c2ccccc2)cs1)c1ccccn1 [Compound 11a] | > 500 µM
O=C(Nc1nc(-c2ccccc2)cs1)c1cccnc1 [Compound 12a] | > 125 µM
O=C(Nc1nc(-c2ccccc2)co1)c1cnccn1 [Compound 17b] | > 500 µM
O=C(Nc1nccs1)c1ccnc(Cl)c1 | > 500 µM

Then there is this compound:
Recorded MIC for Cc1cc(C(=O)Nc2nccs2)cc(Cl)n1 , please?
> 500 µM

----------
assay: RP-UHPLC lipophilicity parameter log k’w; assay type: physicochemical; settings: experimental lipophilicity parameter
Returns fulfilled if the recorded logkw is greater than or equal to 1, and not fulfilled otherwise.

As a guide, the following entries are already answered.
MOLECULE | CATEGORY LABEL
O=C(Nc1nc(-c2ccccc2)co1)c1ccnc(Cl)c1 [Compound 15b] | fulfilled
Cc1cncc(C(=O)Nc2nc(-c3ccccc3)co2)c1 [Compound 14b] | fulfilled
Cc1cc(C(=O)Nc2nccs2)cc(Cl)n1 | fulfilled
O=C(Nc1nccs1)c1ccncc1 | fulfilled
O=C(Nc1nccs1)c1ccccn1 | fulfilled

Now take the following molecule into account.
For this molecule, is measured logkw 1 or higher? O=C(Nc1ncco1)c1ccccn1
not fulfilled

----------
tested on: Mycobacterium tuberculosis H37Ra ITM-M006710 (ATCC 9431); test: Antimycobacterial MIC, microdilution broth / Alamar Blue (resazurin); assay type: cell-based; conditions: Mycobacterium tuberculosis, 120 h, Middlebrook 7H9, resazurin after 120 h; read-out: Mtb H37Ra MIC
READOUT NAME: MIC

Quick batch: MIC for everything below.
1. O=C(Nc1nccs1)c1ccnc(Cl)c1 [Compound 6a]
2. Cc1cc(C(=O)Nc2ncco2)cc(Cl)n1 [Compound 7b]
3. O=C(Nc1nc(-c2ccccc2)co1)c1cnc2ccccc2n1 [Compound 19b]
4. O=C(Nc1nc(-c2ccccc2)co1)c1ccccn1 [Compound 11b]

1: ≥ 500 µg/mL; 2: < 3.91 µg/mL; 3: ≥ 500 µg/mL; 4: 3.91 to 7.81 µg/mL
